assay.method.text: biodistribution and PET/CT in ZR-75-1 tumor-bearing NOD scid gamma mice
condition.info: female, NOD scid gamma (NOD.Cg-Prkdc^sci Il2rg^tm1Wjl/SzJ), mouse, in vivo, iv, total radioactivity, Lungs uptake
experimental.endpoint: tissue uptake at 1 h (%ID/g)
Answer with a number only, understood to be in %ID/g.

compound: C[C@@H](O)[C@H](NC(=O)[C@@H]1CSSC[C@H](NC(=O)[C@@H](Cc2ccccc2)NC(=O)CN2CCN(CC(=O)O)CCN(CC(=O)O)CCN(CC(=O)O)CC2)C(=O)N[C@@H](Cc2ccc(O)cc2)C(=O)N[C@H](Cc2c[nH]c3ccccc23)C(=O)N[C@@H](CCCCN)C(=O)N[C@@H]([C@@H](C)O)C(=O)N1)C(=O)O [^68Ga-DOTATATE, ^68Ga-DOTA-Tyr^3-octreotate, metal not drawn]
measured: 28.7

compound: C[C@@H](O)[C@@H]1NC(=O)[C@H](CCCCN)NC(=O)[C@@H](Cc2ccc(NC(N)=O)cc2)NC(=O)[C@H](Cc2ccc(NC(=O)[C@@H]3CC(=O)NC(=O)N3)cc2)NC(=O)[C@H](NC(=O)[C@H](Cc2ccc(Cl)cc2)NC(=O)CCC(C(=O)O)N2CCN(CC(=O)O)CCN(CC(=O)O)CC2)CSSC[C@@H](C(=O)N[C@H](Cc2ccc(O)cc2)C(N)=O)NC1=O (stereo partly drawn) [^68Ga-NODAGA-JR11, metal not drawn]
measured: 4.72

From here, focus on the item given below.
Value of measured tissue uptake at 1 h for the entry C[C@@H](O)[C@@H]1NC(=O)[C@H](CCCCN)NC(=O)[C@@H](Cc2c[nH]c3ccccc23)NC(=O)[C@H](Cc2ccc(O)cc2)NC(=O)[C@@H](NC(=O)[C@@H](Cc2ccccc2)NC(=O)CN2CCN(CC(=O)O)CCN(CC(=O)O)CCN(CC(=O)O)CC2)CSSC[C@@H](C(=O)N[C@H](CO)[C@@H](C)O)NC1=O [^68Ga-DOTATOC, ^68Ga-DOTA-Tyr^3-octreotide, metal not drawn] : 22.9

###

assay.method.text: biodistribution and PET/CT in ZR-75-1 tumor-bearing NOD scid gamma mice
condition.info: female, NOD scid gamma (NOD.Cg-Prkdc^sci Il2rg^tm1Wjl/SzJ), mouse, in vivo, iv, total radioactivity, Uterus uptake
Description: All animal studies were done in compliance with the Canadian Council on Animal Care guidelines and were approved by the Animal Care Committee of University of British Columbia (Vancouver, Canada). […] Mice were sedated using 2 mL/min of O2 with 2% isoflurane and injected intravenously (i.v.) with 1–2 MBq of ^68Ga-labeled peptide. […] Uptake was normalized to the injected dose and to the respective weight of the organ, and expressed as percent injected dose per gram of tissue (%ID/g). […]
Recorded measurements of tissue uptake at 1 h, one per entry
Answer with a number only, understood to be in %ID/g.

compound: C[C@@H](O)[C@@H]1NC(=O)[C@H](CCCCN)NC(=O)[C@@H](Cc2ccc(NC(N)=O)cc2)NC(=O)[C@H](Cc2ccc(NC(=O)[C@@H]3CC(=O)NC(=O)N3)cc2)NC(=O)[C@H](NC(=O)[C@H](Cc2ccc(Cl)cc2)NC(=O)CCC(C(=O)O)N2CCN(CC(=O)O)CCN(CC(=O)O)CC2)CSSC[C@@H](C(=O)N[C@H](Cc2ccc(O)cc2)C(N)=O)NC1=O (stereo partly drawn) [^68Ga-NODAGA-JR11, metal not drawn]
tissue uptake at 1 h (%ID/g): 0.86

compound: C[C@@H](O)[C@H](NC(=O)[C@@H]1CSSC[C@H](NC(=O)[C@@H](Cc2ccccc2)NC(=O)CN2CCN(CC(=O)O)CCN(CC(=O)O)CCN(CC(=O)O)CC2)C(=O)N[C@@H](Cc2ccc(O)cc2)C(=O)N[C@H](Cc2c[nH]c3ccccc23)C(=O)N[C@@H](CCCCN)C(=O)N[C@@H]([C@@H](C)O)C(=O)N1)C(=O)O [^68Ga-DOTATATE, ^68Ga-DOTA-Tyr^3-octreotate, metal not drawn]
tissue uptake at 1 h (%ID/g): 0.84

From here, focus on the item given below.
Value of measured tissue uptake at 1 h for the entry C[C@@H](O)[C@@H]1NC(=O)[C@H](CCCCN)NC(=O)[C@@H](Cc2c[nH]c3ccccc23)NC(=O)[C@H](Cc2ccc(O)cc2)NC(=O)[C@@H](NC(=O)[C@@H](Cc2ccccc2)NC(=O)CN2CCN(CC(=O)O)CCN(CC(=O)O)CCN(CC(=O)O)CC2)CSSC[C@@H](C(=O)N[C@H](CO)[C@@H](C)O)NC1=O [^68Ga-DOTATOC, ^68Ga-DOTA-Tyr^3-octreotide, metal not drawn] : 0.54

###

Recorded measurements of tissue uptake at 1 h, one per entry
assay.method.text: biodistribution and PET/CT in ZR-75-1 tumor-bearing NOD scid gamma mice
condition.info: female, NOD scid gamma (NOD.Cg-Prkdc^sci Il2rg^tm1Wjl/SzJ), mouse, in vivo, iv, total radioactivity, Ovaries uptake
Answer with a number only, understood to be in %ID/g.

Value of measured tissue uptake at 1 h for the entry C[C@@H](O)[C@@H]1NC(=O)[C@H](CCCCN)NC(=O)[C@@H](Cc2ccc(NC(N)=O)cc2)NC(=O)[C@H](Cc2ccc(NC(=O)[C@@H]3CC(=O)NC(=O)N3)cc2)NC(=O)[C@H](NC(=O)[C@H](Cc2ccc(Cl)cc2)NC(=O)CCC(C(=O)O)N2CCN(CC(=O)O)CCN(CC(=O)O)CC2)CSSC[C@@H](C(=O)N[C@H](Cc2ccc(O)cc2)C(N)=O)NC1=O (stereo partly drawn) [^68Ga-NODAGA-JR11, metal not drawn] : 0.67

Value of measured tissue uptake at 1 h for the entry C[C@@H](O)[C@H](NC(=O)[C@@H]1CSSC[C@H](NC(=O)[C@@H](Cc2ccccc2)NC(=O)CN2CCN(CC(=O)O)CCN(CC(=O)O)CCN(CC(=O)O)CC2)C(=O)N[C@@H](Cc2ccc(O)cc2)C(=O)N[C@H](Cc2c[nH]c3ccccc23)C(=O)N[C@@H](CCCCN)C(=O)N[C@@H]([C@@H](C)O)C(=O)N1)C(=O)O [^68Ga-DOTATATE, ^68Ga-DOTA-Tyr^3-octreotate, metal not drawn] : 0.89

Value of measured tissue uptake at 1 h for the entry C[C@@H](O)[C@@H]1NC(=O)[C@H](CCCCN)NC(=O)[C@@H](Cc2c[nH]c3ccccc23)NC(=O)[C@H](Cc2ccc(O)cc2)NC(=O)[C@@H](NC(=O)[C@@H](Cc2ccccc2)NC(=O)CN2CCN(CC(=O)O)CCN(CC(=O)O)CCN(CC(=O)O)CC2)CSSC[C@@H](C(=O)N[C@H](CO)[C@@H](C)O)NC1=O [^68Ga-DOTATOC, ^68Ga-DOTA-Tyr^3-octreotide, metal not drawn] : 0.51

###

assay.method.text: biodistribution and PET/CT in ZR-75-1 tumor-bearing NOD scid gamma mice
condition.info: female, NOD scid gamma (NOD.Cg-Prkdc^sci Il2rg^tm1Wjl/SzJ), mouse, in vivo, iv, total radioactivity, Heart uptake
Protocol: All animal studies were done in compliance with the Canadian Council on Animal Care guidelines and were approved by the Animal Care Committee of University of British Columbia (Vancouver, Canada). […] Mice were sedated using 2 mL/min of O2 with 2% isoflurane and injected intravenously (i.v.) with 1–2 MBq of ^68Ga-labeled peptide. […] Uptake was normalized to the injected dose and to the respective weight of the organ, and expressed as percent injected dose per gram of tissue (%ID/g). […]
experimental.endpoint: tissue uptake at 1 h (%ID/g)
Answer with a number only, understood to be in %ID/g.

Some compounds with recorded tissue uptake at 1 h:
compound: C[C@@H](O)[C@@H]1NC(=O)[C@H](CCCCN)NC(=O)[C@@H](Cc2c[nH]c3ccccc23)NC(=O)[C@H](Cc2ccc(O)cc2)NC(=O)[C@@H](NC(=O)[C@@H](Cc2ccccc2)NC(=O)CN2CCN(CC(=O)O)CCN(CC(=O)O)CCN(CC(=O)O)CC2)CSSC[C@@H](C(=O)N[C@H](CO)[C@@H](C)O)NC1=O [^68Ga-DOTATOC, ^68Ga-DOTA-Tyr^3-octreotide, metal not drawn]
units.label: %ID/g
measured: 0.3
//
compound: C[C@@H](O)[C@H](NC(=O)[C@@H]1CSSC[C@H](NC(=O)[C@@H](Cc2ccccc2)NC(=O)CN2CCN(CC(=O)O)CCN(CC(=O)O)CCN(CC(=O)O)CC2)C(=O)N[C@@H](Cc2ccc(O)cc2)C(=O)N[C@H](Cc2c[nH]c3ccccc23)C(=O)N[C@@H](CCCCN)C(=O)N[C@@H]([C@@H](C)O)C(=O)N1)C(=O)O [^68Ga-DOTATATE, ^68Ga-DOTA-Tyr^3-octreotate, metal not drawn]
units.label: %ID/g
measured: 0.67

From here, focus on the item given below.
Value of measured tissue uptake at 1 h for the entry C[C@@H](O)[C@@H]1NC(=O)[C@H](CCCCN)NC(=O)[C@@H](Cc2ccc(NC(N)=O)cc2)NC(=O)[C@H](Cc2ccc(NC(=O)[C@@H]3CC(=O)NC(=O)N3)cc2)NC(=O)[C@H](NC(=O)[C@H](Cc2ccc(Cl)cc2)NC(=O)CCC(C(=O)O)N2CCN(CC(=O)O)CCN(CC(=O)O)CC2)CSSC[C@@H](C(=O)N[C@H](Cc2ccc(O)cc2)C(N)=O)NC1=O (stereo partly drawn) [^68Ga-NODAGA-JR11, metal not drawn] : 0.46
